EXPERIMENT_NOTES: Protein binding in human serum
Format: ADME, cell-free
MEASURED_ENDPOINT: fraction unbound
The response must contain the number and no unit.

For the molecule "O=C(N[C@@H]1CCOC[C@@H]1C(=O)NO)c1ccc(Cn2c(C(F)(F)F)nc3ccccc32)cc1" , what fraction unbound is on record?
0.21

###

EXPERIMENT_NOTES: Half life in Sprague-Dawley rat at 5.0 mg/kg, iv
Assay type: ADME, organism-based
Design: dose 5 mg/kg, route intravenous
PROTOCOL_CONDITIONS: in vivo
MEASURED_ENDPOINT: half-life (h)
# output: bare number, implied unit h

Sample "O=C(N[C@@H]1CCOC[C@@H]1C(=O)NO)c1ccc(Cn2c(C(F)(F)F)nc3ccccc32)cc1" — what was its half-life?
3.5

###

TESTED_SYSTEM: Collagenase 3 (Homo sapiens)
EXPERIMENT_NOTES: Inhibition of MMP13
MEASURED_ENDPOINT: Ki

Name the reported Ki value associated with the compound "Cc1nc2ccccc2n1Cc1ccc(C(=O)N[C@@H]2CN(C(=O)OC(C)(C)C)C[C@@H]2C(=O)NO)cc1"
> 5.03 µM

###

TESTED_SYSTEM: UniProt P14780
Sequence (P14780 whole entry): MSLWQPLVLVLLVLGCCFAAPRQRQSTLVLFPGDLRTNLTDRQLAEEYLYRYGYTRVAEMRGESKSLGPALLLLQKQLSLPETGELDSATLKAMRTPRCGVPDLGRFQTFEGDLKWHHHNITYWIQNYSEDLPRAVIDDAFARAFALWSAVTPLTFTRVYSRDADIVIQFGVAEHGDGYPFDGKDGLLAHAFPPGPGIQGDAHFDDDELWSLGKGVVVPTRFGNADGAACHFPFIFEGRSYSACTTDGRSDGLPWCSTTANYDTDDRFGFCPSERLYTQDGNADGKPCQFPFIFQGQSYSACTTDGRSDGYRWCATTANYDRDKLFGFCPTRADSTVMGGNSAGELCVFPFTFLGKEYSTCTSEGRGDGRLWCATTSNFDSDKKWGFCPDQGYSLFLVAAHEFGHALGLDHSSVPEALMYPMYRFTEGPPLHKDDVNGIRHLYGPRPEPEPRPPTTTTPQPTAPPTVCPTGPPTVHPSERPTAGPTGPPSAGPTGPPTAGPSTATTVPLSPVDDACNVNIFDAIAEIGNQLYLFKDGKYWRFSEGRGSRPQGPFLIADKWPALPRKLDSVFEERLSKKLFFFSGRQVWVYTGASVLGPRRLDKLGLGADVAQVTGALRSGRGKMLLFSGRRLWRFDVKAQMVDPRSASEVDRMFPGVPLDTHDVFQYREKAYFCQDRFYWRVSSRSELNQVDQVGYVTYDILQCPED
pKi: −log10 of the molar value.
Below, each entry is listed alongside its reported pKi.

Entry "CSc1nc2ccccc2n1Cc1ccc([C@]2(N)CCN([C@H](CC(C)C)C(=O)NO)C2=O)cc1" has what pKi?
6.03

# repeat for "O=C(N[C@@H]1CCC[C@@H]1C(=O)NO)c1ccc(Cn2c(C3CC3)nc3ccccc32)cc1"
< 5.67

Also "CC(C)c1nc2ccccc2n1Cc1ccc(C(=O)N[C@@H]2C[C@@]3(CCCO3)C[C@@H]2C(=O)NO)cc1" ?
< 5.67

Same thing, different compound: "O=C(N[C@@H]1C[C@@]2(CCCO2)C[C@@H]1C(=O)NO)c1ccc(Cn2c(C3CC3)nc3ccccc32)cc1"
< 5.67

Repeat with "CC(C)c1nc2ccccc2n1Cc1ccc(C(=O)N[C@@H]2CCOC[C@@H]2C(=O)NO)cc1"
< 5.67

// next record "C#CCN1C[C@H](C(=O)NO)[C@H](NC(=O)c2ccc(Cn3c(C(C)C)nc4ccccc43)cc2)C1"
< 5.67

Try "CC(F)(F)c1nc2ccccc2n1Cc1ccc(C(=O)N[C@@H]2CCOC[C@@H]2C(=O)NO)cc1" next.
< 5.67

How about "C#CCN1C[C@H](C(=O)NO)[C@H](NC(=O)c2ccc(Cn3c(C(C)(C)C)nc4ccccc43)cc2)C1" ?
< 5.67

###

// values below are reported Ki
TESTED_SYSTEM: Matrix metalloproteinase-15 (Homo sapiens)
Sequence (P51511 whole entry): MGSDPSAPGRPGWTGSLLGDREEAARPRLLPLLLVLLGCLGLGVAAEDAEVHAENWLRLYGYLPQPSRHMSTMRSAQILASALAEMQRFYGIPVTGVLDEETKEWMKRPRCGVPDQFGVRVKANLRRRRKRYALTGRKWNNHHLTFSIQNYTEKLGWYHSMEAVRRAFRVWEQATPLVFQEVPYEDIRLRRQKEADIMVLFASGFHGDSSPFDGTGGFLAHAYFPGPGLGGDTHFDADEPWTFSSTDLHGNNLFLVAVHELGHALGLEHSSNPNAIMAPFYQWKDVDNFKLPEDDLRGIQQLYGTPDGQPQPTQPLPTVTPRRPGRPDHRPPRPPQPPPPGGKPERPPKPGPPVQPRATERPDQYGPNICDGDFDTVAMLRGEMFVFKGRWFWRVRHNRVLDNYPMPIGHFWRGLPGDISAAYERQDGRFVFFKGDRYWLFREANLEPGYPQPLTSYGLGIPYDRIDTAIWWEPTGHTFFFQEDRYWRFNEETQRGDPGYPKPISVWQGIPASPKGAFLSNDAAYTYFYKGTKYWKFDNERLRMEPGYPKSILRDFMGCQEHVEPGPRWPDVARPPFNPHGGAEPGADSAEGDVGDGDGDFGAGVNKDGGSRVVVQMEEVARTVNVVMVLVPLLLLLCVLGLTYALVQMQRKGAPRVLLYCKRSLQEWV

Look at this molecule and give its reported Ki. "Cc1nc2ccccc2n1Cc1ccc(C(=O)N[C@@H]2CN(C(=O)OC(C)(C)C)C[C@@H]2C(=O)NO)cc1"
> 7.09 µM

How about this molecule: "CSc1nc2ccccc2n1Cc1ccc(C(=O)N[C@@H]2CN(C(=O)OC(C)(C)C)C[C@@H]2C(=O)NO)cc1"
> 7.09 µM

###

For reference, pIC50 measured on Stromelysin-2 (Homo sapiens):
pIC50: −log10 of the molar value.

Would you please look over these solved cases?
>>> result("CSc1nc2ccccc2n1Cc1ccc(C(=O)N[C@@H]2CN(C(=O)OC(C)(C)C)C[C@@H]2C(=O)NO)cc1")
"< 5.00"
>>> result("O=C(N[C@@H]1CCOC[C@@H]1C(=O)NO)c1ccc(Cn2c(C(F)(F)F)nc3ccccc32)cc1")
"< 5.00"

Then this compound:
Which pIC50 is listed for "CC(C)c1nc2ccccc2n1Cc1ccc(C(=O)N[C@@H]2CN(C(=O)OC(C)(C)C)C[C@@H]2C(=O)NO)cc1" ?
5.34

###

EXPERIMENT_NOTES: Clearance in Sprague-Dawley rat at 5.0 mg/kg, iv
Assay type: ADME, organism-based
Set-up: dose 5 mg/kg, route intravenous
PROTOCOL_CONDITIONS: in vivo
Classification field: class 1 = clearance at or over 50 mL/min/kg; class 0 = clearance under 50 mL/min/kg.

>>> label_value("O=C(N[C@@H]1CCOC[C@@H]1C(=O)NO)c1ccc(Cn2c(C(F)(F)F)nc3ccccc32)cc1")
"class 0"

Hi team, for "CC(C)c1nc2ccccc2n1Cc1ccc(C(=O)N[C@@H]2CCOC[C@@H]2C(=O)NO)cc1" , is the recorded clearance at or above 50 mL/min/kg?
class 1

Then what about the molecule "O=C(N[C@@H]1COC[C@@H]1C(=O)NO)c1ccc(Cn2c(C(F)(F)F)nc3ccccc32)cc1" ?
class 1

Please do the same for "CC(C)c1nc2ccccc2n1Cc1ccc(C(=O)N[C@@H]2C[C@@]3(CCCO3)C[C@@H]2C(=O)NO)cc1" as well.
class 1

Follow-up entry: "C#CCN1C[C@H](C(=O)NO)[C@H](NC(=O)c2ccc(Cn3c(C(C)C)nc4ccccc43)cc2)C1"
class 1

###

EXPERIMENT_NOTES: Protein binding in dog serum
Type: ADME, cell-free, Canis lupus familiaris
MEASURED_ENDPOINT: fraction unbound

Recorded fraction unbound of "O=C(N[C@@H]1CCOC[C@@H]1C(=O)NO)c1ccc(Cn2c(C(F)(F)F)nc3ccccc32)cc1" , please.
0.2

###

EXPERIMENT_NOTES: AUC in Beagle dog at 2.0 mg/kg, iv
Format: ADME, organism-based, Canis lupus familiaris
Set-up: dose 2 mg/kg, route intravenous
PROTOCOL_CONDITIONS: plasma
MEASURED_ENDPOINT: AUC (µM·h)
Provide the reading as a plain figure in µM·h.

# input compound: "O=C(N[C@@H]1CCOC[C@@H]1C(=O)NO)c1ccc(Cn2c(C(F)(F)F)nc3ccccc32)cc1" ; wanted: its AUC
9.97

###

EXPERIMENT_NOTES: AUC in Sprague-Dawley rat at 8.0 mg/kg, po
Assay type: ADME, organism-based
Design: dose 8 mg/kg, route oral
PROTOCOL_CONDITIONS: plasma
MEASURED_ENDPOINT: AUC (µM·h)
# number only, unit µM·h dropped from output

Quick one: AUC for "O=C(N[C@@H]1CCOC[C@@H]1C(=O)NO)c1ccc(Cn2c(C(F)(F)F)nc3ccccc32)cc1" ?
5.84

###

EXPERIMENT_NOTES: Apparent permeability across human Caco-2 cells
Type: ADME, cell-based
MEASURED_ENDPOINT: Papp (×10⁻⁶ cm/s)
Supply the numeric figure in ×10⁻⁶ cm/s, leaving out any unit text.

>>> result("O=C(N[C@@H]1CCC[C@@H]1C(=O)NO)c1ccc(Cn2c(C3CC3)nc3ccccc32)cc1")
2
>>> result("Cc1nc2ccccc2n1Cc1ccc(C(=O)N[C@@H]2CNC[C@@H]2C(=O)NO)cc1")
0.1
>>> result("CC(F)(F)c1nc2ccccc2n1Cc1ccc(C(=O)N[C@@H]2CCOC[C@@H]2C(=O)NO)cc1")
0.7

Suppose we examine the compound "CC(C)c1nc2ccccc2n1Cc1ccc(C(=O)N[C@@H]2CN(C(=O)OC(C)(C)C)C[C@@H]2C(=O)NO)cc1" ; what Papp value has been reported?
0.2

Another compound: "CC(C)c1nc2ccccc2n1Cc1ccc(C(=O)N[C@@H]2CCC[C@@H]2C(=O)NO)cc1"
0.1

###

Tested on: Blood
EXPERIMENT_NOTES: Reduction of LPS-induced TNFalpha in human whole blood
Assay type: functional, tissue-based
# IC50 annotations
Write the number in nM without appending the unit.

Example molecules with recorded IC50:
>>> result("CC(C)c1nc2ccccc2n1Cc1ccc(C(=O)N[C@@H]2CCC[C@@H]2C(=O)NO)cc1")
65
>>> result("O=C(N[C@@H]1COC[C@@H]1C(=O)NO)c1ccc(Cn2c(C(F)(F)F)nc3ccccc32)cc1")
102

What is its IC50 for Blood? Entry: "CSc1nc2ccccc2n1Cc1ccc(C(=O)N[C@@H]2CNC[C@@H]2C(=O)NO)cc1"
34

Same read-out for "O=C(N[C@@H]1C[C@@]2(CCCO2)C[C@@H]1C(=O)NO)c1ccc(Cn2c(C3CC3)nc3ccccc32)cc1" ?
42

// repeat for "CC(C)c1nc2ccccc2n1Cc1ccc(C(=O)N[C@@H]2CCOC[C@@H]2C(=O)NO)cc1" and report
105

###

pKi: −log10 of the molar value.
Consider compounds characterized by their pKi with Interstitial collagenase (Homo sapiens).
Sequence (P03956 whole entry): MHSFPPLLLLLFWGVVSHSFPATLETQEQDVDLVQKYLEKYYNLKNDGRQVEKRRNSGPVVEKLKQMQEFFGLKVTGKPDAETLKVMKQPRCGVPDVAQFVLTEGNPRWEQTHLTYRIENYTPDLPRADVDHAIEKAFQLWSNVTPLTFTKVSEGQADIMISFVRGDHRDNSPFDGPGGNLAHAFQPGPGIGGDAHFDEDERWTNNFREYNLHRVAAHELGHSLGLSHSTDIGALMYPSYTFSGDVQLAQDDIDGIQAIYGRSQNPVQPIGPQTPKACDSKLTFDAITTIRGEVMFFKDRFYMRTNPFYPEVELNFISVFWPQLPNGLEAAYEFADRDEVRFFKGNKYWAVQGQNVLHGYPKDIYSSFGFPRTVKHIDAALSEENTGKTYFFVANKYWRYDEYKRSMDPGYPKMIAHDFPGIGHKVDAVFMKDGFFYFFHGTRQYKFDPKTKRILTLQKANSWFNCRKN

>>> result("C#CCN1C[C@H](C(=O)NO)[C@H](NC(=O)c2ccc(Cn3c(C(C)(C)C)nc4ccccc43)cc2)C1")
"< 5.31"
>>> result("Cc1nc2ccccc2n1Cc1ccc(C(=O)N[C@@H]2CN(C(=O)OC(C)(C)C)C[C@@H]2C(=O)NO)cc1")
"< 5.67"

Pending compound:
Quick check: pKi of "CC(C)c1nc2ccccc2n1Cc1ccc(C(=O)N[C@@H]2CCOC[C@@H]2C(=O)NO)cc1" ?
< 5.31
